system: L. donovani promastigotes; experiment: Dose and time-dependent inhibitory effect on L. donovani promastigotes (2, 4, 6, 24 hours exposure); assay type: cell-based, Leishmania donovani; details: Leishmania donovani; promastigotes; 24 hours exposure; means ± S.E.; read-out: Antileishmanial Activity IC50 (μM) 24 hours
Attribute Measured: IC50

{"Molecule": "O=C1C(Cl)=C(N(C(=O)c2ccc(Cl)cc2)C(=O)c2ccc(Cl)cc2)C(=O)c2ccccc21 [IMDNQ1]", "Test System": "L. donovani promastigotes", "Attribute Measured": "IC50", "Reading": "5.28 µM"}
{"Molecule": "COc1cc(C(=O)N(C(=O)c2cc(OC)c(OC)c(OC)c2)C2=C(Cl)C(=O)c3ccccc3C2=O)cc(OC)c1OC [IMDNQ11]", "Test System": "L. donovani promastigotes", "Attribute Measured": "IC50", "Reading": "8.82 µM"}
{"Molecule": "O=C1C(Br)=C(N(C(=O)c2ccccc2Cl)C(=O)c2ccccc2Cl)C(=O)c2ccccc21 [IMDNQ5]", "Test System": "L. donovani promastigotes", "Attribute Measured": "IC50", "Reading": "5.85 µM"}
{"Molecule": "COc1ccc(C(=O)N(C(=O)c2ccc(OC)cc2)C2=C(Cl)C(=O)c3ccccc3C2=O)cc1 [IMDNQ9]", "Test System": "L. donovani promastigotes", "Attribute Measured": "IC50", "Reading": "7.23 µM"}
{"Molecule": "O=C1C(Cl)=C(N(C(=O)c2ccc(F)cc2)C(=O)c2ccc(F)cc2)C(=O)c2ccccc21 [IMDNQ3]", "Test System": "L. donovani promastigotes", "Attribute Measured": "IC50", "Reading": "3.23 µM"}
